- experimental.target: SARS-COV-2 RBD extracellular domain expressed with a C-terminal myc-myc-hexahistidine tag (SARS-CoV-2)
- assay.procedure: SPR (Biacore), mAb captured by anti-human Fc, RBD-mmH in solution, 25 C
# t½ per entry
Number in min, nothing else.

The examples below pair each entry with its known result.
* mAb14286 (antibody, V domains shown) VH: QVQLVQSGAEVKKPGASVKVSCKASGYTFTDYFIHWVRQAPGQGLEWMGWINPTSGGTNYAQKFRGRVTMTRDTSISTAYVELSRLRSDDTALYYCARDLPFYSDTKQFDYWGQGTLVTVSS VL: QSALTQPASVSGYPGQSITISCTGTSSDVGGYNYVSWYQQHPGKAPKLMIFDVSNRPSGVSNRFSGSKSGNTASLTFSGLQAEDEADYYCSSYTSSSTLVFGGGTKLTVLG | 1.1
* mAb14256 (antibody, V domains shown) VH: QVQLQESGPGLVKPSETLSLTCTVSGGSISSHYWSWIRQPPGKGLEWIGYIYYSGSSNYNPSLKSRVTISVDTSKNQFSLKLNSVTAADTAVYYCARHYDILTGFDWFDPWGQGTLVTVSS VL: QSVLTQPPSVSGAPGQRVTISCTGSSSNIGTHYDVHWYQQLPGTAPKLLIYGNSNRPSGVPDRFSGSKSGTSASLAITGLQAEDEADYYCQSFDNSLTAPYVFGTGTKVTVLG | 1.2

Prompt: Retrieve t½ measured for mAb14284 (antibody, V domains shown) VH: QITLKESGPTLVKPTQTLTLTCTFSGFSFSTSGVGVGWIRQPPGKTLEWLALIYWDDDKRYSPSLKSRLTITKDTSKNQVVLTMTNMDPVDTATYFCAHHGIPTIFGYWGQGALVTVSS VL: QSALTQPASVSGSPGQSITISCTGTSSDLGVFNYVSWYQQHPGKAPKLMIYEVTNRPSGVSNRFSGSKSGNTASLTISGLQAEDEADYYCSSYTTSSTVFGGGTKLTVLG and print it.
Completion: 21
